Test system: Spontaneously hypertensive rats (SHR)
Assay: Antihypertensive activity in conscious spontaneously hypertensive rats (SHR), iv
Format: in vivo
Details: Rattus norvegicus, 5 min, 3 mg/kg, 5 minutes after dose, cumulative dosing, read-out: % change in mean arterial pressure
Recorded change in vivo at 3 mg/kg for the following compounds
value.kind: change in vivo at 3 mg/kg (%)

[
  {
    "compound": "CCc1nn(C2CCCC2)c2nc(-c3ccnc(OCCN4CCOCC4)c3)[nH]c(=O)c12 [Example 124c, hydrate]",
    "result.unit": "%",
    "readout.number": -14
  },
  {
    "compound": "Cc1[nH]n(C2CCCC2)c2nc(-c3ccnc4ccccc34)nc(=O)c1-2 [Example 13b]",
    "result.unit": "%",
    "readout.number": -14
  },
  {
    "compound": "CCOc1cnccc1-c1nc2n(C3CCCC3)[nH]c(CC)c-2c(=O)n1 [Example 119d]",
    "result.unit": "%",
    "readout.number": -24
  },
  {
    "compound": "CCc1[nH]n(C2CCCC2)c2nc(-c3ccncc3OC(C)CC)nc(=O)c1-2 (stereo not shown) [Example 132b]",
    "result.unit": "%",
    "readout.number": -8
  }
]
